Below is a list of entries, each paired with its recorded TGI value.
test system: KM12 colon; assay: NCI tumour cell line growth inhibition, 48 h

| molecule | TGI |
| --- | --- |
| CC(=O)OCC1OC(NC(=S)CCSc2nc3ccccc3c(=O)n2-c2ccccc2)C(OC(C)=O)C(OC(C)=O)C1OC(C)=O (centres undefined) | > 100 µM |
| Cc1cc(C)nc(NS(=O)(=O)c2ccc(NC(=O)c3cccc4c(Nc5ccc(S(=O)(=O)N=C(N)N)cc5)c5ccc(Cl)cc5nc34)cc2)n1 | > 100 µM |
| Cc1noc(NS(=O)(=O)c2ccc(NC(=O)c3ccc4nc5ccccc5c(Nc5ccc(S(=O)(=O)Nc6onc(C)c6C)cc5)c4c3)cc2)c1C | > 100 µM |
| O=C(C(Br)C(Br)c1ccccc1)C(Br)C(Br)c1ccccc1 (centres undefined) | 4.27 µM |
| Cc1nc(C(N)=S)sc1C(=O)CC(=O)C(=O)Nc1c(C(C)C)cccc1C(C)C | > 100 µM |
| C=C1[C@@H](OC(C)=O)[C@H]2[C@@H](OC(C)=O)[C@@](C)(OC(C)=O)C[C@]2(OC(C)=O)C(=O)[C@@H](C)/C=C/C(C)(C)C(=O)C[C@H]1OC(C)=O | > 100 µM |
| Cn1c2ccccc2c(=NNc2ccc(S(N)(=O)=O)cc2)c2ccccc21 | > 50 µM |
| O=C1C(c2ccccc2)=C(c2ccccc2)C(c2ccc(-c3ccc(C4=C(c5ccccc5)C(=O)C(c5ccccc5)=C4c4ccccc4)cc3)cc2)=C1c1ccccc1 | > 100 µM |
| O=C(O)CCc1nc2c(n1Cc1ccccc1)C(=O)c1ccccc1C2=O | > 100 µM |
| CC(C)(Oc1ccc(Cl)cc1)C(=O)NC1C2CC3CC1CC(NS(C)(=O)=O)(C3)C2 (centres undefined) | > 100 µM |
| COC(=O)C1CCC(=O)C(Sc2ccccc2)C1 (centres undefined) | > 100 µM |
| C=CCOC1=CC(=O)c2ccccc2C1=O | 9.26 µM |
| CCN(CC)c1ncnc2c1ncn2CCNC(CO)(CO)CO | > 100 µM |
| CN(C(=O)c1cccs1)C(=S)N1CCN(c2ccccn2)CC1 | > 100 µM |
| O=C1C2=C(CCCC2)Nc2cccc3ncn1c23 | > 100 µM |
| CN(CC(=O)O)c1ncc2c(n1)-c1ccccc1OC2c1ccccc1 (centres undefined) | > 100 µM |
| CCC(C)NC1=C(NC(C)=O)C(=O)c2ccccc2C1=O (centres undefined) | > 75 µM |
| CCCCCOC(=O)C(=O)Nc1n[nH]nc1C(N)=O | > 100 µM |
| O=C(NNC(=O)C1CCN(S(=O)(=O)c2ccc(-c3ccccc3)cc2)CC1)c1ccc(C(F)(F)F)cc1 | > 50 µM |
